Just for reference, paper PMC10005104 is where these values come from.

TARGET_OR_SYSTEM: AChE from electrophorus electricus (eeAChE) (Electrophorus electricus, UniProt O42275)
Construct: purchased Sigma-Aldrich (Steinheim, Germany)
Sequence (O42275 24-633): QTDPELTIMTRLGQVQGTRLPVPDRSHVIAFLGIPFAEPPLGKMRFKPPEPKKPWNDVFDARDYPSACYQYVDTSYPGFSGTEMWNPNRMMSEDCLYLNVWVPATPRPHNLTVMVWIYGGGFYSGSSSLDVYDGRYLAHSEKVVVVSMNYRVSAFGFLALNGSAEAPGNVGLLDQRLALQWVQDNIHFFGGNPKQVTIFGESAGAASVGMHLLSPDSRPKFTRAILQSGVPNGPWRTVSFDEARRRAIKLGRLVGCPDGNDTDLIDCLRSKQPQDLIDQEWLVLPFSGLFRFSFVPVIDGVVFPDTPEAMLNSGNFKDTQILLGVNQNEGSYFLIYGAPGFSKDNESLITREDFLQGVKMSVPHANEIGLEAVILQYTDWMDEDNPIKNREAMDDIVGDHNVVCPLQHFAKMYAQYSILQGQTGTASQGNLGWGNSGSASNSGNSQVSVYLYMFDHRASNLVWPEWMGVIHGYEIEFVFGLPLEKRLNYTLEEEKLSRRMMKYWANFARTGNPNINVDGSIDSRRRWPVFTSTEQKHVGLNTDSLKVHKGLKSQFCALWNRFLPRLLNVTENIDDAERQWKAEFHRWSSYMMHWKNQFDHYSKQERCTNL
EXPERIMENT_DESCRIPTION: modified Ellman colorimetric assay, eeAChE
Assay type: biochemical
CONDITION_LABEL: three independent experiments; read-out: eeAChE IC50 Mean ± SEM
Threshold 3000 nM. IC50 below it: 1 (yes). IC50 at it or above: 0 (no).

CCC(=O)c1ccc(OCCCCCCN2CCCCCC2)cc1.O=C(O)C(=O)O [Compound 17]    1 (yes)

Exam item: Consider the molecule CCC(=O)c1ccc(OCCCCCCN2CCC(C)CC2)cc1.O=C(O)C(=O)O [Compound 13] . Is its IC50 strictly less than 3000 nM?
Marked response: 1 (yes)

Exam item: Consider the molecule CCC(=O)c1ccc(OCCCCCN2CCCC(C)C2)cc1 (centres unmarked) [Compound 8] . Is its IC50 strictly less than 3000 nM?
Marked response: 1 (yes)

Exam item: Consider the molecule CCC(=O)c1ccc(OCCCCCN2CCCCCC2)cc1.O=C(O)C(=O)O [Compound 16] . Is its IC50 strictly less than 3000 nM?
Marked response: 0 (no)

Exam item: Consider the molecule CC(=O)c1ccc(OCCCCCCN2CCC(C)CC2)cc1.O=C(O)C(=O)O [Compound 11] . Is its IC50 strictly less than 3000 nM?
Marked response: 1 (yes)

Exam item: Consider the molecule CCC(=O)c1ccc(OCCCCCCN2CCCCC2)cc1.O=C(O)C(=O)O [Compound 5] . Is its IC50 strictly less than 3000 nM?
Marked response: 0 (no)

Exam item: Consider the molecule CC(=O)c1ccc(OCCCCCCN2CCCC(C)C2)cc1.O=C(O)C(=O)O (centres unmarked) [Compound 7] . Is its IC50 strictly less than 3000 nM?
Marked response: 1 (yes)

---

# viability at 24 h, 50 µM per record follows
EXPERIMENT_DESCRIPTION: MTS assay in SH-SY5Y cells
Assay type: cell-based
CONDITION_LABEL: human, SH-SY5Y neuroblastoma cells; at 50 µM, percentage of control (vehicle-treated cells); read-out: SH-SY5Y Cell Viability (%)
Give a bare numeral; the unit % is implied.

Before answering, review these 4 worked examples.
CCC(=O)c1ccc(OCCCCCN2CCCC(C)C2)cc1 (centres unmarked)    90.7
CCC(=O)c1ccc(OCCCCCCN2CCCCCC2)cc1.O=C(O)C(=O)O    70.3
CCC(=O)c1ccc(OCCCCCN2CCC(C)CC2)cc1    90.7
CCC(=O)c1ccc(OCCCCCN2CCCCCC2)cc1.O=C(O)C(=O)O    90.3

Now look at this entry.
Exam item: Item CC(=O)c1ccc(OCCCCCN2CCCC(C)C2)cc1 (centres unmarked) : provide viability at 24 h, 50 µM
Marked response: 86.2

---

TARGET_OR_SYSTEM: BuChE from equine serum (eqBuChE) (Equus caballus, UniProt P81908)
Construct: BuChE from equine serum (eqBuChE); purchased Sigma-Aldrich (Steinheim, Germany); host or cells: equine serum
Sequence (P81908 whole entry): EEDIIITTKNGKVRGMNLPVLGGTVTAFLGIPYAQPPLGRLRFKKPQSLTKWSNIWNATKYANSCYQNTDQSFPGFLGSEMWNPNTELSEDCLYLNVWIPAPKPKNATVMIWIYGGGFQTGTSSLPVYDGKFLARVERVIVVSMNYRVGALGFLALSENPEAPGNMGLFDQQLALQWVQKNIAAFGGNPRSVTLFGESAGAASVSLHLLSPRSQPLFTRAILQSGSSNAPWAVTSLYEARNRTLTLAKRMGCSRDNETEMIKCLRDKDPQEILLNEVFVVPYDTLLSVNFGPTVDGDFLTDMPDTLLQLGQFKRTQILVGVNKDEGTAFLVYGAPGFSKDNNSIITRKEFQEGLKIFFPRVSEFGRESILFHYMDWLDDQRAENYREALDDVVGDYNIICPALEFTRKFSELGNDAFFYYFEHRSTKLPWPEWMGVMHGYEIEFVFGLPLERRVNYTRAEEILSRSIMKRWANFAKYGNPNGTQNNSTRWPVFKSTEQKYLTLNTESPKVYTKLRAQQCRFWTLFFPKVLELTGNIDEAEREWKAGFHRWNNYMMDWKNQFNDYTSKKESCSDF
EXPERIMENT_DESCRIPTION: biochemical
CONDITION_LABEL: at 10 µM; read-out: eqBuChE % inh
ENDPOINT_LABEL: inhibition at 10 µM (%)
Give a bare numeral; the unit % is implied.

Before answering, review these 3 worked examples.
CC(=O)c1ccc(OCCCCCN2CCCCC2)cc1 [Compound 2]    25
CC(=O)c1ccc(OCCCCCCN2CCCCCC2)cc1 [Compound 15]    68
CC(=O)c1ccc(OCCCCCCN2CCC(C)CC2)cc1.O=C(O)C(=O)O [Compound 11]    49

Exam item: Report value: inhibition at 10 µM, system: BuChE from equine serum (eqBuChE) (Equus caballus, UniProt P81908), molecule: CC(=O)c1ccc(OCCCCCN2CCCCCC2)cc1 [Compound 14]
Marked response: 63

Exam item: Report value: inhibition at 10 µM, system: BuChE from equine serum (eqBuChE) (Equus caballus, UniProt P81908), molecule: CC(=O)c1ccc(OCCCCCN2CCCC(C)C2)cc1 (stereo not drawn) [Compound 6]
Marked response: 14

Exam item: Report value: inhibition at 10 µM, system: BuChE from equine serum (eqBuChE) (Equus caballus, UniProt P81908), molecule: CCC(=O)c1ccc(OCCCCCCN2CCC(C)CC2)cc1.O=C(O)C(=O)O [Compound 13]
Marked response: 65
